# TARGET OR SYSTEM: T1, human RHOG (amino acids 1–179) (human, UniProt P84095 1-179)
# T1 construct: RHOG, human, GeneID 391, amino acids 1–179; Loaded with GMPPNP (or GDP) as told for each assay; also called wild-type RHOG; source: E. coli BL21 (DE3) CodonPlus, purified (nickel-nitrilotriacetic acid, thrombin cleavage, Superdex 75)
# T1 sequence (P84095 1-179): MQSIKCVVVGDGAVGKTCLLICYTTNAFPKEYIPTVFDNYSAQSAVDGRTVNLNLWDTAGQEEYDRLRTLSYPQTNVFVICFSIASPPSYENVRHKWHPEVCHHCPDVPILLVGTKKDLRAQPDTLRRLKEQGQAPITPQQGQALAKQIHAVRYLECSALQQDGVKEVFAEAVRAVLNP
# EXPERIMENTAL DETAILS: ITC; ELMO2^RBD injected into the cell containing GMPPNP-loaded (activated) RHOG; 20 mM Tris-HCl (pH 7.5), 100 mM NaCl, 1 mM DTT; 25 °C
# CONDITION INFO: both partners purified
PARAMETER MEASURED: pKd
Give only the number. pKd is defined as minus log10 of concentration in molar units.

Req: Using the record for N-terminal RBD domain of murine ELMO2 (amino acids 1–80) (domain or fragment, UniProt Q8BHL5 1-80, looked up, also called ELMO2^RBD; wild-type ELMO2^RBD; source: E. coli BL21 (DE3) CodonPlus, purified (GSH resin, thrombin cleavage on the resin, Superdex 75); not shown: GST, N-terminal, cleaved) MPPPSDIVKVAIEWPGANAQLLEIDQKRPLASIIKEVCDGWSLPNPEYYTLRYADGPQLYVTEQTRNDIKNGTILQLAVS , report its pKd.
Resp: 5.11

Source: paper PMC7351999
